Reference source: patent US11173137B2

Target: CLC-2 (Homo sapiens (Human), UniProt P51788)
Sequence (P51788 whole entry): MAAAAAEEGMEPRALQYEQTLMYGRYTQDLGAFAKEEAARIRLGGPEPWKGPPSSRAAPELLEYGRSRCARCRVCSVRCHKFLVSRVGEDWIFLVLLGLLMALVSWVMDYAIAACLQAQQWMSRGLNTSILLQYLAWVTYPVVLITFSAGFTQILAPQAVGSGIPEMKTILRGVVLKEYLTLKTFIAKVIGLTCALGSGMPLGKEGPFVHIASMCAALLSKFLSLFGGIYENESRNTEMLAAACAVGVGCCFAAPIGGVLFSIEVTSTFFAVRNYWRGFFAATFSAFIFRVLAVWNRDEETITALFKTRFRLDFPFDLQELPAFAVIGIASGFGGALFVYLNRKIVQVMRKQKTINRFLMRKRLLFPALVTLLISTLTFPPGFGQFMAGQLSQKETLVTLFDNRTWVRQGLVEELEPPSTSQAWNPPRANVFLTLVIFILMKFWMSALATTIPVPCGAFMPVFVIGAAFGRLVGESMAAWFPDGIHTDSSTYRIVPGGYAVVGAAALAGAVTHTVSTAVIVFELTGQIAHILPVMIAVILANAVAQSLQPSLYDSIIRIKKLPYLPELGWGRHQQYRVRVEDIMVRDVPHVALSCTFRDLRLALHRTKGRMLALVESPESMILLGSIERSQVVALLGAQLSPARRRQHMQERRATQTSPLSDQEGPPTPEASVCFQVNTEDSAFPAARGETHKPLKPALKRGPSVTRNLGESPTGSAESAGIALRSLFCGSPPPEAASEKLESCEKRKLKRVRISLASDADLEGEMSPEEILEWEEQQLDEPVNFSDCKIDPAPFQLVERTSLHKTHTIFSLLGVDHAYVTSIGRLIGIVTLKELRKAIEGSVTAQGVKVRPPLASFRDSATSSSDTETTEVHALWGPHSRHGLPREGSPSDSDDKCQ
Test: IonWorks Barracuda automated patch-clamp electrophysiology, human CLC-2 cell line
Format: cell-based
Conditions: n = 4 cells, four concentrations of each compound; IonWorks Barracuda; read-out: IC50 (μM) against CLC-2
For each entry below, report its IC50 value.
Give bare numbers, in µM.

Example entries begin here.
Cc1ccc(Cl)c(Nc2ccccc2-c2nnn[nH]2)c1Cl : 33.4
CC(=O)Nc1cccc(COc2ccc(Cl)c(Nc3ccccc3C(=O)O)c2Cl)c1 : 81.9

Then this molecule:
**Query** Please provide the recorded IC50 for CCc1ccc(Cl)c(Nc2ccccc2C(=O)O)c1Cl , tested on CLC-2 (Homo sapiens (Human), UniProt P51788).
**Result** 7.69
